Experimental protocol: probe aLefty1 binding on compound microarray – biochemical, small-molecule microarray, 635/667 nm fluorescence, primary screen (AID 1153);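 further: score merges spot fluorescence with signal-to-noise ratio from the scanned slide images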
Conditions: higher = more signal
Measured composite z-score by item
Lab note: jot the number down without any unit.

Solved entries (count: 5):
{"Compound": "Cc1ccc(S[C@]2(C(=O)NC3CC3)CC(=O)N(C(C)C)[C@@H]2c2ccc(CO)cc2I)cc1", "Reported value": -0.703}
{"Compound": "C=CCC(OC(C)=O)[C@@H]1[C@@H](N(Cc2cc3ccccc3o2)C(=O)Cc2ccc(OC)cc2)c2cc(OCCCO)ccc2N1C(=O)c1ccc2ccccc2n1 (stereo partly specified)", "Reported value": 0.231}
{"Compound": "COCCOC(=O)N1C(=O)[C@@]2(c3cc(C#CCCO)ccc31)[C@H](c1ccccc1OCCO)N1[C@H](c3ccccc3)[C@H](c3ccccc3)OC(=O)[C@H]1[C@@H]2C(N)=O", "Reported value": -0.278}
{"Compound": "COc1ccc([Si](C)(C)[C@@H]2[C@@H](CC(=O)N3Cc4ccccc4C[C@H]3CO)O[C@]3(C(=O)N(Cc4cccc(N5CCOC5=O)c4)c4ccccc43)[C@H]2C)cc1", "Reported value": 0.647}
{"Compound": "CC(C)C[C@@H]1NC(=O)[C@@]23C(=O)N[C@@H](Cc4ccccc4)C2[C@H](C)[C@@]2(C)O[C@H]2C3/C=C/C/C=C\\CNC(=O)CNC1=O (stereo partly specified)", "Reported value": -0.0832}

-- ask Specify reported composite z-score for the compound shown: O=C1O[C@@H](c2ccccc2)[C@@H](c2ccccc2)N2[C@@H](c3ccc(OCCO)cc3)[C@]3(C(=O)Nc4ccc(C#CCCO)cc43)[C@@H](C(=O)O)[C@H]12
-- reply 1.31

* * *

Target entity: Left-right determination factor 2 (Homo sapiens)
Experimental protocol: small molecules binding LEFTY2 protein – biochemical, small-molecule microarray, 635 nm fluorescence scan, primary screen (AID 1110)
Conditions: higher = more signal
Parameter threshold = 0.2. Response is 1 (yes) when composite z-score meets or exceeds it, else 0 (no).

{"Compound": "COc1ccc(NN2C(C(O)c3ccc(I)cc3)C=CC3C(=O)N(C4CCCCC4)C(=O)C32)cc1 (centres undefined)", "Cat": "1 (yes)"}

-- ask Evaluate O=C1O[C@H](Cc2ccccc2)[C@@H]2[C@H]3C=CCCC=C3CN2[C@H]1Cc1ccc(O)cc1 : composite z-score at minimum 0.2?
-- reply 0 (no)

-- ask Determine whether measured composite z-score meets or exceeds 0.2 for CCOC(=O)C1=CC[C@@H](c2ccc(OC)cc2)N(S(=O)(=O)c2ccc(C)cc2)[C@H]1c1ccc(C)cc1
-- reply 0 (no)

-- ask Tell me whether composite z-score is at least 0.2 here: CC1CC/C=C\[C@H]2OC34C=CCN(Cn5nnc6ccccc65)C(=O)[C@H]3N(CCCCCCO)C(=O)[C@@H]4C2C(=O)O1 (some centres undefined)
-- reply 0 (no)

-- ask Determine whether measured composite z-score meets or exceeds 0.2 for O=C(NCCN1CCOCC1)[C@@H]1c2ccccc2C(=O)N(Cc2ccccc2C(F)(F)F)[C@H]1c1ccc(CO)cc1
-- reply 0 (no)

-- ask Item C=CC[C@]1(C(=O)NCC(O)CO)COC(c2ccc(OCCCO)cc2)=N1 (some centres undefined) with composite z-score of 0.2 or above?
-- reply 0 (no)

-- ask Is reported composite z-score greater than or equal to 0.2 here: CCOC(=O)C1=C[C@@H](C(C)(C)C)N(S(=O)(=O)c2ccc(C)cc2)[C@H]1c1ccc(C#N)cc1
-- reply 1 (yes)

-- ask Has COCCOC(=O)N1C(=O)[C@@]2(c3cc(C#CCC(C(=O)OC)C(=O)OC)ccc31)[C@H](c1ccc(O)cc1)N1[C@H](c3ccccc3)[C@H](c3ccccc3)OC(=O)[C@H]1[C@@H]2C(=O)Nc1nc2ccccc2s1 a recorded composite z-score greater than or equal to 0.2?
-- reply 1 (yes)

* * *

Experimental protocol: small molecules captured by biotinylated probe aFGF10 – biochemical, small-molecule microarray, fluorescence 635/667, stem cell growth factor project, primary screen (AID 1071);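 further: score merges 667 nm spot intensity and signal to noise from triplicate slides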
Conditions: higher = more signal
Quantity name: composite z-score
The response must contain the number and no unit.

The cases that follow already have their composite z-score on record.
{"Compound": "CCCCC(O)C1C=CC2C(=O)N(c3ccccc3)C(=O)C2N1Nc1ccccc1 (stereo unspecified)", "Reported value": 0.43}
{"Compound": "C=CCC(OC(C)=O)[C@@H]1[C@@H](N(Cc2ccc(-c3ccccc3)cc2)C(=O)c2cccc3ccccc23)c2cc(OCCCO)ccc2N1C(=O)Cc1ccc(OC)cc1 (stereo partly specified)", "Reported value": -0.234}
{"Compound": "COC(=O)[C@@]1(Cc2ccc(OC)cc2)[C@H]2c3cc(C(=O)N(C)C)[nH]c3C[C@H]2CN1C(=O)c1ccccc1", "Reported value": 0.304}
{"Compound": "COc1ccc([Si](C)(C)[C@@H]2[C@@H](CC(=O)N3Cc4ccccc4C[C@H]3CO)O[C@]3(C(=O)N(Cc4cccc(N5CCOC5=O)c4)c4ccccc43)[C@H]2C)cc1", "Reported value": 0.147}
{"Compound": "COC(=O)C(CC#Cc1ccc2c(c1)[C@]1(C(=O)N2)[C@H](C(=O)NC[C@H](O)c2ccccc2)[C@H]2C(=O)O[C@H](c3ccccc3)[C@H](c3ccccc3)N2[C@@H]1c1ccccc1OCCO)C(=O)OC", "Reported value": 0.558}

Note: attention shifts to another entry.
-- ask Return value of composite z-score for input COc1ccc(C(=O)Nc2ccc(CN3C(=O)[C@@]4(O[C@@H](CCn5cc(CCO)nn5)[C@H]([Si](C)(C)c5ccc(OC)cc5)[C@H]4C)c4ccccc43)cc2)cc1 , no commentary.
-- reply 0.462

* * *

Test system: Sonic hedgehog protein (Shh)
Experimental protocol: Sonic hedgehog microarray binding compounds – biochemical, small-molecule microarray, 635/667 nm fluorescence, primary screen (AID 1151);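 further: Shh protein binding to compounds spotted on small-molecule microarray slides; score combines spot fluorescence intensity with signal-to-noise across triplicate slides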
Conditions: 635 nm fluorescence, higher = more signal
Binary classification by composite z-score, with 1 as an inclusive lower bound for true; all other cases are false.

{"Compound": "Cc1ccc(C(C)CC(O)C2C=CC3C(=O)N(C)C(=O)C3N2Nc2ccccc2)o1 (stereo not given)", "Cat": "true"}
{"Compound": "Cc1ccc(S[C@]2(C(=O)NC(C)C)CC(=O)N(C3CCCCC3)[C@@H]2c2ccc(CO)cc2I)cc1", "Cat": "true"}
{"Compound": "C=CC1c2cc(O)c(OC)cc2CCN1C (stereo not given)", "Cat": "false"}
{"Compound": "Cc1ccc(S[C@]2(C(=O)NCCCN(C)C)CC(=O)N(C3Cc4ccccc4C3)[C@@H]2c2ccc(CO)cc2I)cc1", "Cat": "false"}

-- ask // inclusive: composite z-score at least 1? input: CCCC[C@H]1C[C@@H]1[C@@H]1N(C(C)=O)[C@H](c2cccc(OC)c2)CC12CC2
-- reply false

* * *

Experimental protocol: optical density shifts of acrAB sulA E. coli – strain DRC41, OD650, 48 h, E. coli filamentation inducer project, primary screen (AID 1152);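 further: E. coli MC1000 strain DRC41 lacking acrAB efflux pump and sulA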
Conditions: higher = more signal, called active from +8 up or from −8 down
Quantity name: z-score
Returns: the value as a bare number; no unit string appended.

Reference set (5 entries):
{"Molecule": "C=CCOC(=O)[C@H]1[C@@H]2C(=O)O[C@@H](c3ccccc3)[C@@H](c3ccccc3)N2[C@@H](c2ccc(OCCOC(=O)[C@@H]3C[C@@H]4C(=O)N[C@@H](CCCC[N+](C)(C)C)C(=O)N4[C@@H]3c3ccc(O)cc3)cc2)[C@]12C(=O)Nc1ccc(I)cc12", "z-score": -1.78}
{"Molecule": "C[N+](C)(C)CCCC[C@@H]1NC(=O)[C@@H]2C[C@H](C(=O)NCc3ccc(F)cc3)[C@H](c3ccc(O)cc3)N2C1=O", "z-score": -0.7}
{"Molecule": "COc1cc(CO)cc(I)c1O[C@H]1C=C(C(=O)NCCO)C[C@@H](NC2CCCCCC2)[C@@H]1O", "z-score": 0.818}
{"Molecule": "C=CCOC(=O)[C@@H]1[C@H]2C(=O)O[C@H](c3ccccc3)[C@H](c3ccccc3)N2[C@H](c2ccc(OCCOC(=O)[C@H]3C[C@H]4C(=O)NCC(=O)N4[C@H]3c3cccc(OCCO)c3)cc2)[C@@]12C(=O)Nc1ccc(I)cc12", "z-score": -0.27}
{"Molecule": "C=CCC(OC(C)=O)[C@@H]1[C@@H](N(Cc2cc3ccccc3o2)C(=O)c2cccc3ccccc23)c2cc(OCCCO)ccc2N1C(=O)c1ccc2ccccc2n1 (stereo partly specified)", "z-score": 0.595}

// switching to the query molecule
-- ask Could you please provide reported z-score for Cc1ccc(C(C)CC(O)C2C=CC3C(=O)N(C)C(=O)C3N2Nc2ccccc2)o1 (stereo unspecified) ? Thanks!
-- reply -2.23

* * *

Target entity: Pro-neuregulin-1, membrane-bound isoform (Homo sapiens) (UniProt Q02297)
Sequence (Q02297 whole entry, looked up, canonical isoform): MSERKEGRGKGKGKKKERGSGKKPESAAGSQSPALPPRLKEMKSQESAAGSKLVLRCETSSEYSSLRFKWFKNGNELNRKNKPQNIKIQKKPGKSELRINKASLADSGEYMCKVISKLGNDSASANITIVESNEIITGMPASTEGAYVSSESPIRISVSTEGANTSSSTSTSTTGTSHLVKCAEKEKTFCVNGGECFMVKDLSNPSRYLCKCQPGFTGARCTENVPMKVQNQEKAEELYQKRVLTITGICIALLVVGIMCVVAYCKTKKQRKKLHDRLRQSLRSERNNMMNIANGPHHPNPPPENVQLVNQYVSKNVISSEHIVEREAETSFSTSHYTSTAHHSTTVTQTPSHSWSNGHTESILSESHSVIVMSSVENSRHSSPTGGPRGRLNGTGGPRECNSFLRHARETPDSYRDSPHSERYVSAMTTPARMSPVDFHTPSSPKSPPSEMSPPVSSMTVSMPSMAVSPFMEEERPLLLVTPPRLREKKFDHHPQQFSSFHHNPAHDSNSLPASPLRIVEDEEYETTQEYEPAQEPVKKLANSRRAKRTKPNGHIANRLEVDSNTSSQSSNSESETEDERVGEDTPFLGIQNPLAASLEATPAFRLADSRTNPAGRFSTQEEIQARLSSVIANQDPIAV
Experimental protocol: small molecules binding neuregulin-1 protein – biochemical, small-molecule microarray, fluorescence 635/667, psychiatric disease protein project, primary screen (AID 1075);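 further: score combines 667 nm spot fluorescence with signal to noise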
Conditions: NRG1 binding, 635 nm fluorescence, higher = more signal
Quantity name: composite z-score
Could you keep your reply to the number by itself?

Please review the following examples before continuing.
{"Smiles data": "Cc1ccc(S[C@]2(C(=O)NCCCN(C)C)CC(=O)N(Cc3ccccc3C(F)(F)F)[C@@H]2c2ccc(CO)cc2I)cc1", "composite z-score": 1.51}
{"Smiles data": "COC(=O)[C@@]1(Cc2ccc(F)cc2)[C@H]2c3cc(C(=O)N4CCCC4)n(CCc4ccccn4)c3C[C@H]2CN1C(=O)c1ccccc1", "composite z-score": 1.8}

Okay, now this compound:
-- ask Please indicate composite z-score recorded for O=C1O[C@@H](c2ccccc2)[C@@H](c2ccccc2)N2[C@@H](c3ccc(OCCO)cc3)[C@]3(C(=O)Nc4ccc(C#CCCO)cc43)[C@@H](C(=O)O)[C@H]12
-- reply 1.46
